The origin of these recorded values is paper PMC10649086.

- Test Target: cathepsin K (Homo sapiens)
- Sequence (P43235 115-329): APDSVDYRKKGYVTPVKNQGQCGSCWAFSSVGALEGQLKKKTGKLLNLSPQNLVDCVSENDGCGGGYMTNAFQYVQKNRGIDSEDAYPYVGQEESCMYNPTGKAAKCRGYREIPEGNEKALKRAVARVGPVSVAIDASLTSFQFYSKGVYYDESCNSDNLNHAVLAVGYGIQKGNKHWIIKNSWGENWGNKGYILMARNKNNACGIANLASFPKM
Outcome Measure: pKi
pKi here: minus log base 10 of the concentration, concentration in moles per litre.

Recorded pKi for N#C[C@H](C[C@@H]1CCCNC1=O)NC(=O)[C@H](CC1CC1)NC(=O)c1cc2cccc(Cl)c2[nH]1 [pomotrelvir] with cathepsin K (Homo sapiens), please? 6.54

====

- Test Target: CoV-NL63 M^pro (Human coronavirus NL63)
- Sequence (P0C6X5 2940-3242 limits assumed): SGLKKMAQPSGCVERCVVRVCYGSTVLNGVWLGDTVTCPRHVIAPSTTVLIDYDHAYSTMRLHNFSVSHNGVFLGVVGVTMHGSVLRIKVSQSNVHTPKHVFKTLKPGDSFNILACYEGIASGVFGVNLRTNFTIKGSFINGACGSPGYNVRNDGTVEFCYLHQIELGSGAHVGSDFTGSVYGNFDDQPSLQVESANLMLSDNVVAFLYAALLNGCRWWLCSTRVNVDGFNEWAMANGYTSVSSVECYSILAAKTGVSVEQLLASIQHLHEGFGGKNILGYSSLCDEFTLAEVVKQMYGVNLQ
Outcome Measure: pIC50
Recall that pIC50 is obtained by taking minus log10 of the concentration measured in molar.

Field: pIC50 (CoV-NL63 M^pro (Human coronavirus NL63)). Entry: N#C[C@H](C[C@@H]1CCCNC1=O)NC(=O)[C@H](CC1CC1)NC(=O)c1cc2cccc(Cl)c2[nH]1 [pomotrelvir] 6.69

====

- Test Target: cathepsin B (Homo sapiens)
Outcome Measure: Ki

Field request: Ki | item: `N#C[C@H](C[C@@H]1CCCNC1=O)NC(=O)[C@H](CC1CC1)NC(=O)c1cc2cccc(Cl)c2[nH]1` 1.27 µM

====

- System: SARS-CoV-2 BA.2.12.1 Omicron
- Assay Text: microbe, parasite or virus in culture
- Assay type: cell-based
- Condition Context: Severe acute respiratory syndrome coronavirus 2, read-out: EC50 Mean (SD)
Outcome Measure: pEC50
Please keep in mind that pEC50 is minus log10 of the molar concentration; only the number is needed.

State the recorded pEC50 for this entry: `N#C[C@H](C[C@@H]1CCCNC1=O)NC(=O)[C@H](CC1CC1)NC(=O)c1cc2cccc(Cl)c2[nH]1` 7.22

====

- Test Target: CoV-229E M^pro (Human coronavirus 229E, UniProt P0C6X1)
- Construct: M^pro proteins from other human CoVs were also cloned, expressed in E. coli and purified by WuXi AppTec; host or cells: E. coli
- Sequence (P0C6X1 2966-3267 limits assumed): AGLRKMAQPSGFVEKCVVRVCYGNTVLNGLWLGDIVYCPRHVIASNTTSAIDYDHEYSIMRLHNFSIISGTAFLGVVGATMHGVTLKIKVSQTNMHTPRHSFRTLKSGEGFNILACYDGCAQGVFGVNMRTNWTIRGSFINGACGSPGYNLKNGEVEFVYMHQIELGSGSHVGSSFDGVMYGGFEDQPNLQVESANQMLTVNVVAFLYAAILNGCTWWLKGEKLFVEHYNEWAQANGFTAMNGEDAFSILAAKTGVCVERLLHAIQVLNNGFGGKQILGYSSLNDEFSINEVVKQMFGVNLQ
- Assay Text: biochemical
Outcome Measure: pIC50
Bear in mind: pIC50 is minus log10 of a mol/L concentration; give just that figure.

Form field: reported pIC50 of `N#C[C@H](C[C@@H]1CCCNC1=O)NC(=O)[C@H](CC1CC1)NC(=O)c1cc2cccc(Cl)c2[nH]1` 6.85

====

- Test Target: cathepsin S (Homo sapiens, UniProt P25774)
- Sequence (P25774 115-331): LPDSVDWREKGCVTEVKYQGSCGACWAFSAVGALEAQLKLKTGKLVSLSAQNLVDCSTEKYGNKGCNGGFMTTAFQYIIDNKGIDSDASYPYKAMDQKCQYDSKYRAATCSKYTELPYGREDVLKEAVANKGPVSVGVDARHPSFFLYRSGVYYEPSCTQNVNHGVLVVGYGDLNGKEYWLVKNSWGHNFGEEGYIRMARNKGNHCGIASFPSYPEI
Outcome Measure: Ki (nM)
Just the number please, in nM, no unit attached.

Request - read-out Ki | tested on cathepsin S (Homo sapiens, UniProt P25774) | molecule N#C[C@H](C[C@@H]1CCCNC1=O)NC(=O)[C@H](CC1CC1)NC(=O)c1cc2cccc(Cl)c2[nH]1 [pomotrelvir] 445

====

- Test Target: cathepsin L (Homo sapiens)
- Sequence (P07711 114-333): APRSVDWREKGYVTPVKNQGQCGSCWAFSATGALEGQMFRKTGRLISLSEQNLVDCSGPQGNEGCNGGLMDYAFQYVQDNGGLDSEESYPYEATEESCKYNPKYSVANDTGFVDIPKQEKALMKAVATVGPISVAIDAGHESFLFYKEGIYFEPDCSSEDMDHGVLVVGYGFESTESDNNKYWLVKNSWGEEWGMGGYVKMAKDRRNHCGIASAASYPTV
Outcome Measure: Ki
In your response, put the unit directly after the numeric value.

Quick check: Ki of `N#C[C@H](C[C@@H]1CCCNC1=O)NC(=O)[C@H](CC1CC1)NC(=O)c1cc2cccc(Cl)c2[nH]1` ? 7.4 µM

====

- Test Target: CoV-OC43 M^pro (Human coronavirus OC43)
- Sequence (P0C6X6 3247-3549 limits assumed): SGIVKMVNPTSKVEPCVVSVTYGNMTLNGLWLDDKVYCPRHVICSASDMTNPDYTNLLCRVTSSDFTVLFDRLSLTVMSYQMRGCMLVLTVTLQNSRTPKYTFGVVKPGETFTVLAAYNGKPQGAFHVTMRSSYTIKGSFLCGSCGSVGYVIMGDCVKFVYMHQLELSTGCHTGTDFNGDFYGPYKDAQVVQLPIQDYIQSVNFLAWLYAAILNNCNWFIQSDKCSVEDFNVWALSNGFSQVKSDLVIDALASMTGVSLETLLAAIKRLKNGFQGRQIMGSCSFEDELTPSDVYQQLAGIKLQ
Outcome Measure: pIC50
The quantity pIC50 is defined as the negative base-10 logarithm of the molar concentration.

Request the reported pIC50 associated with N#C[C@H](C[C@@H]1CCCNC1=O)NC(=O)[C@H](CC1CC1)NC(=O)c1cc2cccc(Cl)c2[nH]1 [pomotrelvir] 6.80
